Source of measurements: PubChem BioAssay (NCATS)

procedure text: Primary qHTS for inhibitors of SARS-S pseudo-typed particle cell entry (AID 1479145); also: nearly all actives have a fitted effect of over 45% in size
condition description: SARS-S pseudotyped particle cell entry, luciferase reporter; series mostly up to 57.1 µM
Records with an inconclusive call do not appear. The source made the active and inactive calls. Calls follow the shape of the full dose curve.
measurement label: outcome

Some compounds with recorded outcome:
| compound | outcome |
| --- | --- |
| CC(=O)OCC(=O)[C@@]12N=C(C)O[C@@H]1C[C@H]1[C@@H]3CCC4=CC(=O)C=C[C@]4(C)[C@H]3[C@@H](O)C[C@@]12C | inactive |
| CC(C)(C)C(=O)OCOC(=O)[C@@H]1N2C(=O)[C@@H](NC(=O)[C@H](N)c3ccccc3)[C@H]2SC1(C)C | inactive |
| CCc1cccc2c3c([nH]c12)C(CC)(CC(=O)O)OCC3 (stereo not given) | inactive |
| C[C@H](N)[C@H](O)c1cccc(O)c1 | inactive |

### Prompt Give the reported outcome for this compound. "C#C[C@]1(O)CC[C@H]2[C@@H]3CCC4=CC(=O)CC[C@@H]4[C@H]3CC[C@@]21C"
### Response inactive
